Sourced from the supplement of paper PMC9950053

Entries and their excitability
Test system: Danio rerio larvae (5 dpf)
method: excitability (activity period 17 minus period 16, 1-s interval sound) minus DMSO control (percentage points); higher = more acoustic excitability than DMSO larvae
setupConditions: 10 µM; exposure time: 3 h pre-incubation + 3 h imaging
Counter-ions that a name gives are not always drawn.
quantityName: excitability

1. CN(C)CCc1c[nH]c2ccc(C[C@H]3COC(=O)N3)cc12 | 4.24
2. O=c1n(CCCN2CCN(c3cccc(Cl)c3)CC2)nc2ccccn12 [Trazodone hydrochloride] | 20.3
3. CC(C)(C(=O)O)c1ccc(C(O)CCCN2CCC(C(O)(c3ccccc3)c3ccccc3)CC2)cc1 (centres undefined) [Fexofenadine hydrochloride] | -5.03
4. O=C(O)C[C@H](O)C[C@H](O)/C=C/c1c(C2CC2)nc2ccccc2c1-c1ccc(F)cc1 | -1.16
